# reported pIC50; entries follow
System: P30-OHK;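 note: growth inhibition of the P30-OHK cell line, read out with a cell viability assay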
Assay: cells
Format: functional, cell-based
Settings: Homo sapiens
Description: SANGER: Inhibition of human P30-OHK cell growth in a cell viability assay.
pIC50: −log10 of the molar value.

Molecule: COc1ccc(C2=N[C@@H](c3ccc(Cl)cc3)[C@@H](c3ccc(Cl)cc3)N2C(=O)N2CCNC(=O)C2)c(OC(C)C)c1 [NUTLIN-3]
Readout qualifier: <
pIC50: 5.10
--
Molecule: Cc1cc([C@@H](C)Nc2ccccc2C(=O)O)c2nc(N3CCOCC3)cc(=O)n2c1 [AZD-6482]
Readout qualifier: =
pIC50: 5.97
--
Molecule: O=c1cc(-c2cccc3c2Sc2ccccc2S3)oc(N2CCOCC2)c1 [KU-55933]
Readout qualifier: <
pIC50: 5.00
--
Molecule: C[C@]1(O)C[C@@H](c2nc(-c3ccc4ccc(-c5ccccc5)nc4c3)c3c(N)nccn32)C1 [LINSITINIB]
Readout qualifier: <
pIC50: 5.59
--
Molecule: Cn1cncc1[C@@](N)(c1ccc(Cl)cc1)c1ccc2c(c1)c(-c1cccc(Cl)c1)cc(=O)n2C [TIPIFARNIB]
Readout qualifier: =
pIC50: 6.58
--
Molecule: COC(=O)CNC(=O)C(=O)OC
Readout qualifier: =
pIC50: 3.33
--
Molecule: Cn1cc(C2=C(c3ccc(Cl)cc3Cl)C(=O)NC2=O)c2ccccc21 [SB-216763]
Readout qualifier: <
pIC50: 5.00
